- assaySystem: HA1 adenosine receptor (Homo sapiens, UniProt P30542)
- Sequence (P30542 whole entry): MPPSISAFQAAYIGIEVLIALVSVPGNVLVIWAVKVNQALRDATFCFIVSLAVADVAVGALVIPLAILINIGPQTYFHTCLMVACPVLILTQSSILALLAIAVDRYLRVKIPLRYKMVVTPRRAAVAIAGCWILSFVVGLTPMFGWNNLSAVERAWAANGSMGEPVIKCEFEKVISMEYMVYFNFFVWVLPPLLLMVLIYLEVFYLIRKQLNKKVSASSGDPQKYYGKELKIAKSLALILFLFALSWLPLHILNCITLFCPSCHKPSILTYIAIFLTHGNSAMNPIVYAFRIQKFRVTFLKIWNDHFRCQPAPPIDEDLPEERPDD
- method: Human adenosine A1 receptor affinity (Ki hA1)
- Format: binding
- experimentalSetup: affinity to human adenosine A1 receptor
observable: Ki (µM)
The response must be a number in µM with no trailing unit.

Worked examples, 4 compounds total:
# compound, readoutUnits, Ki
records = [
    ("Nc1cc(C(=O)N2CCCCCC2)cc2nc(-c3ccc(Br)o3)nn12", "µM", 0.0527),
    ("Nc1cc(C(=O)NC2CCc3ccccc32)cc2nc(-c3ccoc3)nn12 (centres unmarked)", "µM", 0.414),
    ("Nc1cc(C(=O)NCc2ccccc2Br)cc2nc(-c3ccc(Br)o3)nn12", "µM", 0.196),
    ("Nc1cc(C(=O)N(CCc2ccccc2)Cc2ccccc2)cc2nc(-c3cccnc3)nn12", "µM", 0.239),
]

Would you kindly look at the next entry?
Ki measured on `CCCCN(C)C(=O)c1cc(N)n2nc(-c3ccc(Br)o3)nc2c1` = 0.149

* * *

- assaySystem: human adenosine A2A receptor (Homo sapiens, UniProt P29274)
- Construct: expressed in transfected cells; host or cells: CHO cells, Semliki Forest virus expression system; membrane preparation
- Sequence (P29274 whole entry): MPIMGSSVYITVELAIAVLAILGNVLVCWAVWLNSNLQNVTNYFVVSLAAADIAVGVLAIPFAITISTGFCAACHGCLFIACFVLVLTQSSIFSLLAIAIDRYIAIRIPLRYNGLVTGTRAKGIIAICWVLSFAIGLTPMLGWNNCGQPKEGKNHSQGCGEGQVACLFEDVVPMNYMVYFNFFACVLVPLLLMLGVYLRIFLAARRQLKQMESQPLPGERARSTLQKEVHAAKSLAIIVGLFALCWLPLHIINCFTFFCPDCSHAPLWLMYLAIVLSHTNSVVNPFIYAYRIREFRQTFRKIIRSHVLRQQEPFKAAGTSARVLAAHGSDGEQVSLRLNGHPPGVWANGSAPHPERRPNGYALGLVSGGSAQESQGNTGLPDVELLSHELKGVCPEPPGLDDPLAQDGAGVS
- method: Human adenosine A2A receptor [3H]-SCH-58261 binding assay
- experimentalSetup: ratio KiHA1 divided by KiHA2A
Assign labels as follows, please: 1 for selectivity (A1/A2a) below 30; 0 for selectivity (A1/A2a) equal to or exceeding 30.

As a guide, the following entries are already answered.
# compound, assignedCategory
records = [
    ("CN(C)C(=O)C1CCCN1C(=O)c1cc(N)n2nc(-c3ccccn3)nc2c1 (centres unmarked) [Example 432]", 1),
    ("CCC1CCC(C)N(C(=O)c2cc(N)n3nc(-c4ccccn4)nc3c2)C1 (centres unmarked) [Example 430]", 1),
    ("CCN(CC)C(=O)C1CCCN(C(=O)c2cc(N)n3nc(-c4ccccn4)nc3c2)C1 (centres unmarked) [Example 434]", 0),
    ("COC[C@H]1CCCN1C(=O)c1cc(N)n2nc(-c3ccccn3)nc2c1 [Example 425]", 0),
]

*Q* Does this compound meet the criterion selectivity (A1/A2a) < 30? CCCCN(CC)C(=O)c1cc(N)n2nc(-c3ccccn3)nc2c1 [Example 421]
*A* 1

* * *

// reported Ki per item
- assaySystem: HA1 adenosine receptor (Homo sapiens)
- method: Human adenosine A1 receptor affinity (Ki hA1)
- Assay type: binding
- experimentalSetup: affinity to human adenosine A1 receptor
The response must be a number in nM with no trailing unit.

# molecule, assaySystem, readoutUnits, Ki
records = [
    ("Nc1cc(C(=O)N2CCSCC2)cc2nc(-c3ccc(Br)o3)nn12", "HA1 adenosine receptor (Homo sapiens)", "nM", 253),
    ("Nc1cc(C(=O)NCc2ccc(Cl)cc2)cc2nc(-c3ccc(Cl)o3)nn12", "HA1 adenosine receptor (Homo sapiens)", "nM", 190),
    ("CC1CC(C)CN(C(=O)c2cc(N)n3nc(-c4ccc(Br)o4)nc3c2)C1 (stereo not drawn)", "HA1 adenosine receptor (Homo sapiens)", "nM", 120),
]

Would you kindly look at the next entry?
Ki measured on `CCCN(CC1CC1)C(=O)c1cc(N)n2nc(-c3ccc(Br)o3)nc2c1` = 94
